Test system: CAL-12T;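 note: growth inhibition of human CAL-12T cells, read out with a cell viability assay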
Experiment: cells
Assay type: functional, cell-based, Homo sapiens
Conditions: Homo sapiens, CAL-12T
Description: SANGER: Inhibition of human CAL-12T cell growth in a cell viability assay.
measure: IC50

Reported IC50 for Cn1cnc2c(F)c(Nc3ccc(Br)cc3Cl)c(C(=O)NOCCO)cc21 was > 4000 nM

Reported IC50 for CCC/C=C/C=C/C(=O)O[C@H]1/C(=C/C(=O)OC)C[C@H]2C[C@H]([C@@H](C)O)OC(=O)C[C@H](O)C[C@@H]3C[C@H](OC(C)=O)C(C)(C)[C@](O)(C[C@@H]4C/C(=C/C(=O)OC)C[C@H](/C=C/C(C)(C)[C@]1(O)O2)O4)O3 was > 8 nM

Reported IC50 for CO[C@H]1C[C@@H]2CC[C@@H](C)[C@@](O)(O2)C(=O)C(=O)N2CCCC[C@H]2C(=O)O[C@H]([C@H](C)C[C@@H]2CC[C@@H](OC(=O)C(C)(CO)CO)[C@H](OC)C2)CC(=O)[C@H](C)/C=C(\C)[C@@H](O)[C@@H](OC)C(=O)[C@H](C)C[C@H](C)/C=C/C=C/C=C/1C was > 200 nM

Just for reference, ChEMBL document CHEMBL1201861 is where these values come from.
